Reference source: patent US20200079833A1

# experimental target: T1, GLP-1R (INS1e assay) (UniProt P32301 22-463, limits assumed)
# T1 sequence (looked up): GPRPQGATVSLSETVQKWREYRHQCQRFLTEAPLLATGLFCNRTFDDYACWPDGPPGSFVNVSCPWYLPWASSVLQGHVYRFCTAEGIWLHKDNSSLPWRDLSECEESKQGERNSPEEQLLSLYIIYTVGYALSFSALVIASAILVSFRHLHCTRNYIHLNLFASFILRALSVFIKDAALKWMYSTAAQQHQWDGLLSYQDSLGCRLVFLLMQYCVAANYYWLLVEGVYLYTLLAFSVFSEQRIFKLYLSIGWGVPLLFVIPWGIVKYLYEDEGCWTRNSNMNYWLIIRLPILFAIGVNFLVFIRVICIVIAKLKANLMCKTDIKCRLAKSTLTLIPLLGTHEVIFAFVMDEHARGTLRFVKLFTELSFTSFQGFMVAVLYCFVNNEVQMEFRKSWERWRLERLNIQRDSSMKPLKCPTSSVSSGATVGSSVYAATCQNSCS
# test name: cell-based or functional assay
Starred links: 1 amine or outer side, 2 acyl side, 3 side chain; linkers in the order of their positions; H or OH if unused. Non-standard residues stand in square brackets, D forms with d. Groups on a side chain read outwards from the residue. Primed or numbered codes have the meaning given here. No end group written: not given here. *: point of attachment. Dodecylbenzoate = dodecylbenzoyl lipid group; γGlu = O=C(O)[C@H](CCC(=O)[*:2])N[*:1]; Stearoyl = CCCCCCCCCCCCCCCCCC(=O)*; αMeF = C[C@](N)(Cc1ccccc1)C(=O)O; αMeK = C[C@](N)(CCCCN)C(=O)O; αMeS = C[C@](N)(CO)C(=O)O; PEG2′ = not defined here; Aib = CC(C)(N)C(=O)O
property name: INS1e assay EC50 Mean pM GLP-1R (pM)
// return numeric value only (unit: pM, not printed)

Some solved entries appear below for comparison.
H[Aib]EGS[αMeF]TSDV[αMeS]S[αMeF]LEGEAA[αMeK]E[αMeF]IA[αMeF]VK([PEG2′-PEG2′-γGlu-Stearoyl])[αMeK]GG-NH2 [SEQ ID NO 102] ... 3560
H[Aib]EGS[αMeF]TSDV[αMeS]S[αMeF]LEGEAA[αMeK]E[αMeF]IA[αMeF]VVK([PEG2′-PEG2′-Dodecylbenzoate])GG-NH2 [SEQ ID NO 180] ... 59.2
H[Aib]EGS[αMeF]TSDV[αMeS]S[αMeF]LEGEAA[αMeK]E[αMeF]IAK([PEG2′-PEG2′-γGlu-Stearoyl])VV[αMeK]GG-NH2 [SEQ ID NO 104] ... 331

Here is another binder to look at.
Query: Which measured INS1e assay EC50 Mean pM GLP-1R value corresponds to H[Aib]EGS[αMeF]TSDV[αMeS]SK([PEG2′-PEG2′-γGlu-Stearoyl])LEGEAA[αMeK]E[αMeF]IA[αMeF]VV[αMeK]GG-NH2 [SEQ ID NO 116] ?
Result: 1110
